The origin of these recorded values is patent EP0562849A2.

test system: Syrian Golden hamsters; test: In vivo serum cholesterol lowering in hamsters fed a cholesterol test diet; conditions: hamsters, 0.2% (w/w) in Cholesterol Test Diet for one week, equivalent to 100 mg/kg/day; groups of six; control mean 337
Endpoint: Serum Cholesterol Mean (mg/dL)
API: value field is a number in mg/dL; no unit string.

Solved entries (count: 2):
C=CC[C@@H]1C[C@@]2(C)[C@@H](CC[C@@H]3[C@@H]2CC[C@]2(C)[C@@H]([C@H](C)CCCC(C)C)CC[C@@H]32)C[C@@H]1O; 209
CC(C)CCC[C@@H](C)[C@H]1CC[C@H]2[C@@H]3CCC4[C@H](Cc5ccc(F)cc5)[C@H](O)CC[C@]4(C)[C@H]3CC[C@]12C (stereo partly drawn); 181

Please find the next compound below.
Serum Cholesterol Mean recorded for this compound, CCC[C@@H]1[C@H](O)CC[C@@]2(C)[C@H]1CC[C@@H]1[C@@H]2CC[C@]2(C)[C@@H]([C@H](C)CCCC(C)C)CC[C@@H]12 , is 222
